Data provenance: patent US20240084042A1

target-system: T1, human KLK5 (human, UniProt Q9Y337 67-293)
T1 construct: also called huKLK5; KLK5 AMC
T1 sequence: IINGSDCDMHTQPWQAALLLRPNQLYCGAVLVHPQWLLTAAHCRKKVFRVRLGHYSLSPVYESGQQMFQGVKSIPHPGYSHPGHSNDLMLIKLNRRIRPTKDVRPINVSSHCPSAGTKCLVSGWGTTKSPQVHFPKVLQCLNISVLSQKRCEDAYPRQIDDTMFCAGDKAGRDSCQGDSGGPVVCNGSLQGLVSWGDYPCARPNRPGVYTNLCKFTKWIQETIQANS
experimental-protocol: SPR, one-armed monovalent antibody
Items are presented alongside their recorded kon.
Expressed in M⁻¹ s⁻¹, but write only the number.

Examples with their reported kon follow.
binder	uom	kon
OA.hu.9H5.H14L4.G98Q.S95Y (antibody, V domains shown, One-armed (OA) monovalent anti-KLK5 antibody with a human IgG1 Fc, with Q38E/Q39K; constant regions and dummy Fc chain not specified) VH: EVQLVESGGGLIQPGGSLRLSCAASGFSLSSYGVSWVRKAPGKGLEYVGFIGSGGFAYYASWAKSRFTISRDNSKNTLYLQMNSLRAEDTAVYYCARDDVQGGKSLDIWGQGTLVTVSS VL: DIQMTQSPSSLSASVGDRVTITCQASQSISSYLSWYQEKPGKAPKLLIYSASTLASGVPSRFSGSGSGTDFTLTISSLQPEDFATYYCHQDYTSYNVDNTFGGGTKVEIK	M⁻¹ s⁻¹	785000
OA.hu.9H5.H14L4.G54A.H89V.S95Y (antibody, V domains shown, One-armed (OA) monovalent anti-KLK5 antibody with a human IgG1 Fc, with Q38E/Q39K; constant regions and dummy Fc chain not specified) VH: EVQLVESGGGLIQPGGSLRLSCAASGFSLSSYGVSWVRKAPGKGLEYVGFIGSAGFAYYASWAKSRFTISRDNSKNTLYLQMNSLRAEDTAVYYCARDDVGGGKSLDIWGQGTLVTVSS VL: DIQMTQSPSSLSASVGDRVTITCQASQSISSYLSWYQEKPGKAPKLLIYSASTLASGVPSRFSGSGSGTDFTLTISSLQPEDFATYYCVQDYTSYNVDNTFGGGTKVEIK	M⁻¹ s⁻¹	699000

Problem: Find the recorded kon belonging to OA.hu.9H5.H14L4.G54A.G98Q.H89V.S95Y (antibody, V domains shown, One-armed (OA) monovalent anti-KLK5 antibody with a human IgG1 Fc, with Q38E/Q39K; constant regions and dummy Fc chain not specified) VH: EVQLVESGGGLIQPGGSLRLSCAASGFSLSSYGVSWVRKAPGKGLEYVGFIGSAGFAYYASWAKSRFTISRDNSKNTLYLQMNSLRAEDTAVYYCARDDVQGGKSLDIWGQGTLVTVSS VL: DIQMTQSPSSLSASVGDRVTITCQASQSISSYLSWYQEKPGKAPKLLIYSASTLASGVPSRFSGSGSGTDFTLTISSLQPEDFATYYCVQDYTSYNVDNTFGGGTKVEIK and report it.
Solution: 1.98e+06
